# experimentalProtocol: qHTS assay to test for compound auto fluorescence at 535 nm (green) in HepG2 cell free culture (AID 720686)
# conditionContext: Cell-free medium, green autofluorescence 485/535 nm; series mostly up to 46 µM
Activity calls are given as the source filed them. Calls follow the shape of the dose curve; as a rule, active = well fitted curve in the direction sought with a large enough effect in the repeat runs; inconclusive = weak or mixed curves; inactive = flat fitted curve, though single readings scatter.
assayEndpoint: outcome

The following compounds have reported results that may help.
>>> recordedvalue("C[C@@H](Cc1ccccc1)NCCC(c1ccccc1)c1ccccc1")
"inactive"
>>> recordedvalue("c1ccccc1")
"inactive"
>>> recordedvalue("O.O.O.O=C([O-])C(O)C(O)C(=O)[O-].O=C([O-])C(O)C(O)C(=O)[O-].[K+].[K+].[Sb].[Sb] (configuration not stated)")
"inactive"
>>> recordedvalue("C#CCN1CC(=O)N(COC(=O)C2C(C=C(C)C)C2(C)C)C1=O (configuration not stated)")
"inactive"
>>> recordedvalue("CCN(CC)C(=O)N[C@H]1C[C@@H]2c3cccc4[nH]cc(c34)C[C@H]2N(C)C1")
"inactive"

Task item: Could you share which outcome value was measured for CN[C@H]1C[C@@H](N)[C@H](O)[C@@H](O[C@@H]2O[C@H](CO)[C@H](O)[C@@H]3OC4(O[C@H]23)O[C@H](C(N)CO)[C@H](O)[C@H](O)[C@H]4O)[C@@H]1O (some centres not stated) ?
Reply: inactive

Task item: Could you share which outcome value was measured for "C[C@H]1CC[C@]2(NC1)O[C@H]1C[C@H]3[C@@H]4CC[C@H]5C[C@@H](O[C@@H]6O[C@H](CO)[C@H](O[C@@H]7O[C@H](CO)[C@@H](O)[C@H](O[C@@H]8OC[C@@H](O)[C@H](O)[C@H]8O)[C@H]7O[C@@H]7O[C@H](CO)[C@@H](O)[C@H](O)[C@H]7O)[C@H](O)[C@H]6O)CC[C@]5(C)[C@H]4CC[C@]3(C)[C@H]1[C@@H]2C" ?
Reply: inactive

====

# experimentalProtocol: qHTS assay for identifying genotoxic compounds that show differential cytotoxicity against isogenic chicken DT40 cell lines with known DNA damage response pathways - Rad54/Ku70 mutant cell line (AID 743015); also: nearly all actives have a fitted effect of over 60% in size
# conditionContext: DT40 Rad54/Ku70 mutant viability, CellTiter-Glo, 40 h; series mostly up to 66.8 µM
Results filed as inconclusive are left out. Calls of active or inactive are those of the source. Calls come from the whole dose curve; as a rule, active = well fitted cell-killing curve with a large enough effect in the repeat runs; inconclusive = weak or mixed curves; inactive = no such curve, though single readings can be large or run the other way.
assayEndpoint: outcome

The following molecules have reported results that may help.
>>> recordedvalue("CN[C@@H](C)Cc1ccccc1")
"inactive"
>>> recordedvalue("CN[C@@]1(c2ccccc2Cl)CCCCC1=O")
"inactive"
>>> recordedvalue("Oc1ccc2c3c1O[C@H]1[C@@H](O)CC[C@@]4(O)[C@@H](C2)N(CC2CCC2)CC[C@]314")
"inactive"
>>> recordedvalue("CCC1(C)CC(=O)NC(=O)C1")
"inactive"
>>> recordedvalue("CCCCNC(C)(C)[P+](=O)O")
"inactive"

Task item: Could you share which outcome value was measured for "c1ccc2c(c1)Sc1ccccc1N2C[C@@H]1CN2CCC1CC2" ?
Reply: inactive

Task item: Could you share which outcome value was measured for CCOC(=O)C1(c2ccccc2)CCCN(C)CC1 (configuration not stated) ?
Reply: inactive

====

# experimentalProtocol: qHTS assay to identify small molecule antagonists of the androgen receptor (AR) signaling pathway - cell viability counter screen (AID 743033; also: nearly all actives have a fitted effect of over 45% in size)
# conditionContext: AR-bla HEK293 viability, CellTiter-Glo luminescence, 16 h; series mostly up to 58.5 µM
Inconclusive results are not listed. Calls of active or inactive are those of the source. The call rests on the fitted dose curve; in most records, active means well fitted cell-killing curve with a large enough effect in the repeat runs; inconclusive means weak or mixed curves; inactive means no such curve, though single readings can be large or run the other way.
Hi there, use one of these labels in your reply, thanks! active, inactive

>>> assignedclass("COC(=O)[C@]12CCC(C)(C)C[C@H]1[C@H]1C(=O)C=C3[C@@]4(C)C=C(C#N)C(=O)C(C)(C)[C@@H]4CC[C@@]3(C)[C@]1(C)CC2")
"active"
>>> assignedclass("CCCCCc1cc(O)c2c(c1)OC(C)(C)c1ccc(C)cc1-2")
"inactive"
>>> assignedclass("[2H]C([2H])([2H])[C@H](N)Cc1ccccc1")
"inactive"

Task item: I would be grateful if you could indicate the recorded call for "CC(=O)O[C@H]1CC[C@H]2[C@@H]3CCC4=CC(=O)CCC4=C3C=C[C@]12C" .
Reply: inactive

Task item: I would be grateful if you could indicate the recorded call for "COc1ccc(OC)c(C[C@H](C)N)c1" .
Reply: inactive

Task item: I would be grateful if you could indicate the recorded call for "C[C@]12CC[C@H]3[C@@H](CCC4=C(Cl)C(=O)CC[C@@]43C)[C@@H]1CC[C@@H]2O" .
Reply: inactive

Task item: I would be grateful if you could indicate the recorded call for "COc1ccc2c3c1O[C@H]1[C@@H](O)C=C[C@H]4[C@@H](C2)NCC[C@@]341" .
Reply: inactive

Task item: I would be grateful if you could indicate the recorded call for "C[C@@H]([C@H](O)c1ccccc1)N(C)C" .
Reply: inactive

Task item: I would be grateful if you could indicate the recorded call for "CN1C(=O)CC(=O)N(c2ccccc2)c2cc(Cl)ccc21" .
Reply: inactive

Task item: I would be grateful if you could indicate the recorded call for C[N+]1(C)CCCCC1COC(=O)C(O)(c1ccccc1)c1ccccc1 (centres undefined) .
Reply: inactive

Task item: I would be grateful if you could indicate the recorded call for COc1ccc2c(c1)C13CCCC[C@@H]1C(C2)N(C)CC3 (some centres undefined) .
Reply: inactive

Task item: I would be grateful if you could indicate the recorded call for "NCC[C@H](O)C(=O)N[C@@H]1C[C@H](N)[C@@H](O[C@H]2O[C@H](CN)[C@@H](O)[C@H](O)[C@H]2N)[C@H](O[C@@H]2O[C@H](CO)[C@@H](O)[C@H]2O)[C@H]1O" .
Reply: inactive

Task item: I would be grateful if you could indicate the recorded call for "CC1(C)S[C@@H]2[C@H](N)C(=O)N2[C@H]1C(=O)O" .
Reply: inactive

Task item: I would be grateful if you could indicate the recorded call for "S=C(S)N1CCNCC1" .
Reply: inactive

Task item: I would be grateful if you could indicate the recorded call for "F/C(COc1ccc2c(c1)[nH]c1ccccc12)=C1/CN2CCC1CC2" .
Reply: inactive

Task item: I would be grateful if you could indicate the recorded call for CCCC(C)C1(CC)C(=O)NC(=O)NC1=O (centres undefined) .
Reply: inactive

Task item: I would be grateful if you could indicate the recorded call for "O=[N+]([O-])c1cc(I)c(O)c(I)c1" .
Reply: inactive

Task item: I would be grateful if you could indicate the recorded call for c1ccc(C2(c3ccccc3)CC2C2=NCCN2)cc1 (centres undefined) .
Reply: inactive

Task item: I would be grateful if you could indicate the recorded call for NC1=NC(=O)N2CC12 (centres undefined) .
Reply: inactive

Task item: I would be grateful if you could indicate the recorded call for "c1cc2c(c(NC3=NCCN3)c1)CCCC2" .
Reply: inactive

Task item: I would be grateful if you could indicate the recorded call for "CC(=O)OCC(=O)[C@H]1CC[C@H]2[C@@H]3CC[C@H]4C[C@H](O)CC[C@]4(C)[C@H]3C(=O)C[C@]12C" .
Reply: inactive

Task item: I would be grateful if you could indicate the recorded call for "CC(C)(O)[C@@H]1[C@H]2OC(=O)[C@@H]1[C@]1(O)C[C@H]3O[C@]34C(=O)O[C@H]2[C@]14C" .
Reply: inactive

Task item: I would be grateful if you could indicate the recorded call for "CN[C@@H](C)Cc1ccccc1" .
Reply: inactive

Task item: I would be grateful if you could indicate the recorded call for "CC(C)CCC(=O)O[C@H]1CC[C@H]2[C@@H]3CCC4=CC(=O)CC[C@]4(C)[C@H]3CC[C@]12C" .
Reply: inactive

Task item: I would be grateful if you could indicate the recorded call for "C[C@@H](Cc1ccccc1)N(C)C" .
Reply: inactive
